# Tested on: SF-295 CNS
# methodNotes: NCI-60 one-dose screen, 48 h (100 = growth as untreated, 0 = no growth, -100 = all killed)
# conditionsUsed: 10 µM unless noted
Compounds without any hit were thinned out: in the full panel of roughly 83,000, 20% have a hit. The source made the active and inactive calls. The calls were made as follows: active = growth percent below 10; inactive = the rest.
measurementName: growth

molecule=CCCCNC(=O)Oc1ccc(/C(=C(/C)Cc2ccc(OC)cc2)c2ccc(OCCN3CCCCC3)cc2)cc1 targetundertest="SF-295 CNS" measurementname=growth result="86.8% (inactive)"
molecule="COc1ccc(C2=CC(c3cc(OC)c(OC)c(OC)c3)n3ncnc3N2)cc1 (stereo unspecified)" targetundertest="SF-295 CNS" measurementname=growth result="13.5% (inactive)"
molecule="CCC1S/C(=N\\N=C(\\C)c2cc3cc(Cl)ccc3o2)N(c2ccccc2)C1=O (stereo unspecified)" targetundertest="SF-295 CNS" measurementname=growth result="103% (inactive)"
molecule=Cn1cc(-c2ccc(-c3cn(C)c4ccc(Cl)cc34)[nH]2)c2cc(Cl)ccc21 targetundertest="SF-295 CNS" measurementname=growth result="-15.1% (active)"
molecule=N#C/C(=C\c1cn(Cc2ccccc2)c2ccccc12)C(=O)Nc1ncc(Cc2ccccc2Cl)s1 targetundertest="SF-295 CNS" measurementname=growth result="8.89% (active)"
molecule=Cc1cccc[n+]1C1c2ccccc2-c2ccccc21 targetundertest="SF-295 CNS" measurementname=growth result="99.1% (inactive)"
molecule=C=C(C)[C@@H]1CC[C@]2(C(N)=O)CC[C@]3(C)[C@H](CC[C@@H]4[C@@]5(C)CC[C@H](OCCC#N)C(C)(C)[C@@H]5CC[C@]43C)[C@@H]12 targetundertest="SF-295 CNS" measurementname=growth result="79.5% (inactive)"
molecule="CC[N+]1(CC)CC[N+]2(CCCC(C)CC2)CC1 (stereo unspecified)" targetundertest="SF-295 CNS" measurementname=growth result="98.8% (inactive)"
molecule=Cc1ccc(C(=O)c2ccc(CC(=O)N=Nc3c(O)[nH]c4ccc(Br)cc34)n2C)cc1 targetundertest="SF-295 CNS" measurementname=growth result="99.1% (inactive)"
molecule="CCN1C(=O)N(CC)C2Nn3c(s/c(=C\\c4ccccc4Br)c3=O)=NC21 (stereo unspecified)" targetundertest="SF-295 CNS" measurementname=growth result="25.2% (inactive)"
molecule=C[C@@H]1O[C@@H](O[C@@H]2C[C@H](c3ccc4c(c3O)C(=O)C3=C(C4=O)[C@@]4(O)C(=O)C[C@](C)(O)C[C@@]4(O)C=C3)O[C@H](C)[C@H]2O)CC[C@@H]1O[C@H]1C[C@@H](O)[C@H](O)[C@@H](C)O1 targetundertest="SF-295 CNS" measurementname=growth result="102% (inactive)"
